test name: Log D7.4 (1-octanol / HEPES buffer pH 7.4)
Type: physicochemical
measurement context: 1-octanol / HEPES buffer; HEPES buffer pH 7.4 / 1-octanol, mean of triplicate
value kind: logD at 1 h
Field format: numeric only.

Which measured logD at 1 h value corresponds to COc1ccc(S(=O)(=O)N(C)c2ncc(N(CC(=O)O)S(=O)(=O)c3ccc(OC)cc3)c3ccccc23)cc1 [Compound A3] ?
0

Which measured logD at 1 h value corresponds to COc1ccc(S(=O)(=O)N(CC(F)(F)F)c2cnc(N(CC(=O)O)S(=O)(=O)c3ccc(OC)cc3)c3ccccc23)cc1 [Compound B0] ?
0.5

Which measured logD at 1 h value corresponds to COc1ccc(S(=O)(=O)Nc2ncc(N(CC(=O)O)S(=O)(=O)c3ccc(OC)cc3)c3ccccc23)cc1 [Compound A2] ?
-0.5

Which measured logD at 1 h value corresponds to COc1ccc(S(=O)(=O)N(C)c2cnc(N(CC(=O)O)S(=O)(=O)c3ccc(OC)cc3)c3ccccc23)cc1 [Compound A8] ?
0

---

system tested: Kelch domain of KEAP1 (Homo sapiens (Human), UniProt Q14145)
Sequence (Q14145 321-609): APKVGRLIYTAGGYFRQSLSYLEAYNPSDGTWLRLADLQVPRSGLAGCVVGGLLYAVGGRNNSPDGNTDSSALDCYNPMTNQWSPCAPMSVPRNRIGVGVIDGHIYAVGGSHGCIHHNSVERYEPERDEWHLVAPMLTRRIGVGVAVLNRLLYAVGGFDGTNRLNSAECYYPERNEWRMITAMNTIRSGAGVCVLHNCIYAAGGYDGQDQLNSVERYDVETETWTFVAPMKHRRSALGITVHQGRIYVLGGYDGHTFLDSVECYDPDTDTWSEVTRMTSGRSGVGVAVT
test name: Fluorescence anisotropy assay of KEAP1-NRF2 interaction inhibition
Type: binding
measurement context: qualitative statement on the fluorescence anisotropy results

[
  {
    "compound": "O=C(O)CN(c1cnc(N(CC(=O)O)S(=O)(=O)c2ccc(F)cc2)c2ccccc12)S(=O)(=O)c1ccc(F)cc1 [Compound A5]",
    "binding affinity (in words)": "high binding affinities"
  },
  {
    "compound": "O=C(O)CN(c1cnc(N(CC(=O)O)S(=O)(=O)c2ccc(O)cc2)c2ccccc12)S(=O)(=O)c1ccc(O)cc1 [Compound A4]",
    "binding affinity (in words)": "high binding affinities"
  }
]

---

So I've got a bunch of molecules here, and I need their IC50 values.
system tested: Kelch domain of KEAP1 (Homo sapiens (Human), UniProt Q14145)
test name: Fluorescence anisotropy assay of KEAP1-NRF2 interaction inhibition
Type: binding
measurement context: Table C, unit inferred
Output spec: scalar in µM, unitless text.

# get_value(readout= IC50, system= Kelch domain of KEAP1 (Homo sapiens (Human), UniProt Q14145)) for COc1ccc(S(=O)(=O)Nc2ccc(/C=C/C(=O)O)c3ccccc23)cc1
9.3

# get_value(readout= IC50, system= Kelch domain of KEAP1 (Homo sapiens (Human), UniProt Q14145)) for COc1ccc(S(=O)(=O)Nc2ccc(CCC(=O)O)c3ccccc23)cc1
6

---

So I've got a bunch of molecules here, and I need their pIC50 values.
system tested: Kelch domain of KEAP1 (Homo sapiens (Human), UniProt Q14145)
test name: Fluorescence anisotropy assay of KEAP1-NRF2 interaction inhibition
Format: binding
measurement context: Table C, unit inferred
pIC50: −log10 of the molar value.

Which measured pIC50 value corresponds to COc1ccc(S(=O)(=O)Nc2cnc(N3CCC[C@@H]3C(=O)O)c3ccccc23)cc1 ?
< 4.60

Which measured pIC50 value corresponds to COc1ccc(CCc2ccc(NS(=O)(=O)c3ccc(OC)cc3)c3ccccc23)cc1 ?
< 4.60

Which measured pIC50 value corresponds to COc1ccc(S(=O)(=O)Nc2cnc(N3CCC[C@H]3C(=O)O)c3ccccc23)cc1 ?
5.30

Which measured pIC50 value corresponds to COc1ccc(S(=O)(=O)Nc2cnc(N3CC[C@H](c4ccccc4)C3)c3ccccc23)cc1 ?
< 4.60
